Entry source: ChEMBL document CHEMBL1201862

# System: M14
# Test protocol: NCI tumour cell line growth inhibition, 48 h
Calls of active or inactive are those of the source. No stated cut-off is given here; in the data, active = GI50 up to about 1.1 µM and inactive = higher.
Respond with a class label; see 1 (active), -1 (inactive)

Query string: # lookup: test call for `COCN/C(N)=N/C#N`
Result string: -1

Query string: I would be grateful if you could indicate the recorded call for `O=C1c2ccccc2C(=O)C1C(c1ccc(F)cc1)C1C(=O)c2ccccc2C1=O` .
Result string: -1

Query string: Tell me the assay call for `CCOC(=O)c1cc2c(OC)cc(OC)cc2oc1=O` please.
Result string: -1

Query string: Hi, do you know how `C#CC(O)(c1nc2ccccc2s1)c1nc2ccccc2s1` came out in this test?
Result string: -1

Query string: Could you please tell me the result logged for `CCOC(=O)COc1ccc(/C=C/C(=O)c2ccc(OC)cc2)cc1` in this assay?
Result string: -1

Query string: Please indicate how the test categorized C=C1C[C@@H](O)[C@@H](Br)C(C)(C)[C@]12CCC(C)(Br)C(Cl)C2 (stereo not given in full) .
Result string: -1

Query string: What did the test return for `O=c1c(Sc2c(O)c3ccccc3c3ccccc3c2=O)c(O)c2ccccc2c2ccccc12` ?
Result string: -1

Query string: For `Cc1sc(/N=C/c2c[nH]c3ccccc23)c(C#N)c1C` , which call appears in the assay record?
Result string: -1

Query string: Which outcome was entered for the molecule N#CC(NNC(=O)c1ccccc1O)c1ccccc1 (stereo not given) in this test?
Result string: 1

Query string: Kindly provide the recorded test outcome for the following molecule: `CC(C)[C@H]1NC(=O)[C@H]2N=C(O[C@@H]2C)[C@@H]2CCCN2C(=O)[C@H](Cc2ccccc2)NC(=O)[C@@H]2COC(=N2)[C@@H](Cc2ccccc2)NC(=O)[C@@H]2COC1=N2`
Result string: -1

Query string: Short answer needed: outcome of this test for ClCCCN1CCCCC1CCl (stereo not given) ?
Result string: -1

Query string: Each molecule tested received a call. Report the one for `O=C1c2c(Br)sc(Br)c2[C@@H](Cl)[C@H]1Cl` .
Result string: -1

Query string: How was c1ccc(COCC23CCN(Cc4ccccc4)C(CC(OCc4ccccc4)C2)S3)cc1 (stereo not given) classified in this test?
Result string: -1

Query string: Hey, what did the test say about CC(C)[Si]1(C(C)C)OCC2OC(n3ccc(=O)[nH]c3=O)C([Se]c3ccccc3)C2O[Si](C(C)C)(C(C)C)O1 (stereo not given) ?
Result string: -1

Query string: Would you mind telling me which call this test gave `COc1cc(/C=C2\C[C@H]3[C@@H]4CCC5=CC(=O)CC[C@]5(C)[C@H]4CC[C@]3(C)C2=O)cc(OC)c1OC` ?
Result string: -1

Query string: Hello, I am checking results. What call was entered for `Cc1cc2c(cc1C)C(=O)/C(=C/c1ccccc1C(=O)O)C2` ?
Result string: -1

Query string: Query: recorded result category for `O=C1C=C2CC[C@H]3[C@@H]4CC[C@H](OC(=O)c5cccc6cc7ccccc7nc56)[C@H]4CC[C@@H]3[C@H]2CC1` in this test
Result string: -1

Query string: Entry C=CCc1cc(OC)c2c(c1)C(O)CC(c1ccc(OC)c(OC)c1)O2 (stereo not given) : call = ?
Result string: -1

Query string: Lab log entry: `O=C(O)CCCCn1ccc(=O)[nH]c1=O` — outcome as called in the assay?
Result string: -1

Query string: Test call for this molecule, please: COc1ccc(Oc2cccc(C3C4C(=O)N(c5ccc(C)c(Cl)c5)C(=O)C4ON3C(C(N)=O)c3ccccc3)c2)cc1 (stereo not given)
Result string: -1

* * *

# Tested on: EKVX
# Test protocol: NCI tumour cell line growth inhibition, 48 h
Activity calls are given as the source filed them. Cut-off read from the data, not from the text of the source: active = GI50 up to about 1.1 µM and inactive = higher.
Result type: GI50

Query string: Name the recorded GI50 of the compound listed here: `CC(=O)Nc1sc(Br)cc1S(=O)(=O)c1ccc(Cl)cc1`
Result string: 37.2 µM (inactive)

Query string: Return the recorded GI50 value; entry: C[C@]12CC[C@H](O)CC1=CC[C@@H]1C2CC[C@]2(C)Nc3c(cnn3-c3ccccc3)CC12 (stereo not given in full)
Result string: 6.07 µM (inactive)

Query string: Using known records, supply GI50 for CCCCC[C@@H]1CCCC2NC(CCCCCO[Si](c3ccccc3)(c3ccccc3)C(C)(C)C)CCC21 (stereo not given in full)
Result string: 17.3 µM (inactive)

Query string: Output measured GI50 for this item: CC[C@@H]1CN2CCC1C[C@@H]2C(O)c1ccnc2ccc(OCCN3CCN(CCOc4ccc5nccc(C(O)[C@@H]6C[C@@H]7CCN6C[C@@H]7CC)c5c4)CC3)cc12 (stereo not given in full)
Result string: 17.1 µM (inactive)

Query string: Please give the documented GI50 of `O=C(N[C@H]1c2ccsc2/C(=N/O)[C@H]1O)C(F)(F)F`
Result string: > 100 µM (inactive)

Query string: Please give measured GI50 of the following entry: NC(CCCNCc1ccccc1)C(=O)O (stereo not given)
Result string: > 100 µM (inactive)

Query string: Give me measured GI50, please, for this compound: `CCc1ccc(Cc2ccc(CC)c(NC(=O)C(=O)Cc3nc4ccccc4nc3C)c2CC)c(CC)c1NC(=O)C(=O)Cc1nc2ccccc2nc1C`
Result string: 45.9 µM (inactive)

Query string: Please report the measured GI50 for `COC1=C(OC)C(=O)c2cc(SC)c(=O)c(SC)cc2C1=O`
Result string: 21.2 µM (inactive)

Query string: Give the reported value of GI50 for this record: `Nc1nc(Cl)cc(NCC2(CO)CCCC2)n1`
Result string: > 100 µM (inactive)

Query string: Return GI50 for the following compound: `CCCCCC/C=C/CCCCCCCc1cccc(O)c1C(=O)O`
Result string: 32.7 µM (inactive)

Query string: Give a short answer stating reported GI50 for COc1cc(C2S/C(=C/c3ccccc3)C(=O)N2c2ccccn2)cc(OC)c1OC (stereo not given) .
Result string: 24.4 µM (inactive)

Query string: Query GI50 for `Cc1ccc(N(C)S(=O)(=O)c2ccccc2[N+](=O)[O-])cc1`
Result string: 55.1 µM (inactive)

Query string: Indicate the recorded GI50 value for this compound: `N#Cc1c(N2CCN(c3ccc([N+](=O)[O-])cc3)CC2)[n+]([O-])c2ccccc2[n+]1[O-]`
Result string: > 100 µM (inactive)

Query string: Look up and report measured GI50 for this entry: `COC(=O)N/N=C(\Cc1ccccc1)CN(C)C`
Result string: > 100 µM (inactive)

Query string: Supply recorded GI50 for CC(C)(C)OC(=O)C1/C(=C/CBr)CN1C(=O)OC(C)(C)C (stereo not given) here.
Result string: 18 µM (inactive)

Query string: Provide measured GI50 value, entry: `O=C1c2cc(Br)ccc2-c2ccc3c4ccc5c6c(ccc(c7ccc1c2c73)c64)C(=O)c1cc(Br)ccc1-5`
Result string: > 100 µM (inactive)

Query string: Identify measured GI50 associated with `Clc1nc2n(c1/C=C/c1cccs1)CCS2`
Result string: 5.43 µM (inactive)

Query string: Query GI50 for C/C(=N\NS(=O)(=O)c1ccc(C)cc1)C(CN1CCCCC1)C(c1ccccc1)c1c(O)c2ccccc2oc1=O (stereo not given)
Result string: > 100 µM (inactive)

Query string: Specify GI50 for `Nc1c(S(=O)(=O)O)cc(S(=O)(=O)O)c2ccc(/N=N/c3ccccc3)c(O)c12` and stop.
Result string: > 100 µM (inactive)

Query string: Determine from records and report GI50 for `N#Cc1c(-c2cccc(Cl)c2)cc(-c2ccc(Cl)cc2)nc1N`
Result string: 15.6 µM (inactive)

* * *

# Test system: OVCAR-8
# Test protocol: NCI tumour cell line growth inhibition, 48 h
Calls of active or inactive are those of the source. Rule as the data show it: active = GI50 up to about 1.1 µM and inactive = higher.
Result type: GI50

Query string: # return GI50 of `Cc1ccc(S(=O)(=O)ON2C(=O)c3c(N)c(C#N)c(-c4ccccc4)c(-c4ccccc4)c3C2=O)cc1` (system: OVCAR-8)
Result string: 17.6 µM (inactive)

Query string: State, for OVCAR-8, measured GI50 of the compound listed here: `O=C(O)CCSc1ncnc2[nH]cnc12`
Result string: > 100 µM (inactive)

Query string: Answer with GI50 of `Cc1nc(-c2ccccc2)cn2c1nc1ccccc12` measured for OVCAR-8.
Result string: 18.8 µM (inactive)

Query string: Fill in: GI50 on OVCAR-8, entry `CC(C)OP(=O)(OC(C)C)c1ncn(-c2ccc([N+](=O)[O-])cc2)n1`
Result string: > 100 µM (inactive)

Query string: Quote OVCAR-8 GI50 for entry C=C1C[C@@H](O)[C@@H](Br)C(C)(C)[C@]12CCC(C)(Br)C(Cl)C2 (stereo partly specified) .
Result string: > 50 µM (inactive)

Query string: Consider the compound n1onc2c1NC1Nc3nonc3NC1N2 (stereo unspecified) tested on OVCAR-8; state its GI50.
Result string: > 100 µM (inactive)
